- Tested on: Staphylococcus aureus ATCC 25923
- protocol summary: Microdilution antimicrobial assay (CLSI), S. aureus
- Assay type: cell-based
- test context: compound at 100 μM; mean and standard deviation; 24 h, relative to positive controls
- Experimental: Reference strains of Staphylococcus aureus (ATCC 25923), Escherichia coli (ATCC 25922) and Candida albicans (ATCC 10231) were used in this study as model systems. […] The antimicrobial properties of the metal complexes were determined by a previously established microdilution method in agreement with the Clinical and Laboratory Standard Institute (CLSI) guidelines. […] The plate was incubated at 37 °C for 24 h, and the OD630nm was measured.
readout: Percentage values of microbial growth, S. aureus (%)
Provide the reading as a plain figure in %.

Would you please look over these solved cases?
- CCCCCCCC(=O)N/N=C/c1cc(S(=O)(=O)[O-])cc(OC)c1[O-].[Cl-].[Cu+2].[Na+] [Compound 13, [NaCu(HL7)Cl]]: 99.8
- COc1cc(S(=O)(=O)[O-])cc(/C=N/NC(N)=S)c1[O-].[Cl-].[Cu+2].[Na+] [Compound 8]: 106.3
- COc1cccc(/C=N/NC(N)=O)c1[O-].[Cl-].[Cu+2] [Compound 5, [Cu(HL3)Cl]∙0.5H2O∙0.5CH3OH]: 83.6

Param readout= Percentage values of microbial growth, S. aureus; system= Staphylococcus aureus ATCC 25923; entry= COc1cc(S(=O)(=O)[O-])cc(/C=N/NC(N)=O)c1[O-].[Cl-].[Cu+2].[Na+] [Compound 10, [NaCu(HL6)Cl]] ; returns value.
97.8

What do you get for CCNC(=S)N/N=C/c1cc(S(=O)(=O)[O-])cc(OC)c1[O-].[Cl-].[Cu+2].[Na+] [Compound 9] ?
104.8
